Target: Human PDE10A2 (Homo sapiens (Human), UniProt Q9Y233)
Sequence (Q9Y233 267-1055): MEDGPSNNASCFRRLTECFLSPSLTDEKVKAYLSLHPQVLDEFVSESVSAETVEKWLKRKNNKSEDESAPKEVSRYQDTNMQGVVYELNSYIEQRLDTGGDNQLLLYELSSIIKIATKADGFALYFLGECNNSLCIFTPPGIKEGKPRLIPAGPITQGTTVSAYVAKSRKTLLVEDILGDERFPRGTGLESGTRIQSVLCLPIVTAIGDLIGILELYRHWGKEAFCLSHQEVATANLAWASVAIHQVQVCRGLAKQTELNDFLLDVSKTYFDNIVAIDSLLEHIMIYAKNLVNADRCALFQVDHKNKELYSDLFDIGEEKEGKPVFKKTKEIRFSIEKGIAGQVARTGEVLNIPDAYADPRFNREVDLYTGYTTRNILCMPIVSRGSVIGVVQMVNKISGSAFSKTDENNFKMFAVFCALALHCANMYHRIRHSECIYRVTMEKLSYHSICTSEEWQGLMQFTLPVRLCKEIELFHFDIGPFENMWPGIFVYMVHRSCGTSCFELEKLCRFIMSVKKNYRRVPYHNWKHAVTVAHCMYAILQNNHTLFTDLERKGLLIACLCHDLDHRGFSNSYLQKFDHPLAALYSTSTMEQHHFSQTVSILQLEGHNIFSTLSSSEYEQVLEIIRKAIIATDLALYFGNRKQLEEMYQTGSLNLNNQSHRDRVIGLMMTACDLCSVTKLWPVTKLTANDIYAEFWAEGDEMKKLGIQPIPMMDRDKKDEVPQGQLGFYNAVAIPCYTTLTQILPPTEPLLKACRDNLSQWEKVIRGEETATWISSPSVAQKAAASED
Experiment: Cell based human PDE10A activity assay - cAMP HTRF assay in HEK 293 rhPDE10A2 cell line
Settings: Forskolin 10 μM; read-out: cAMP HTRF Assay in HEK 293 rhPDE10A2 cell line (pIC50) (converted)
Item-by-item account of IC50
Response body: numeric value in nM, unit text excluded.

{"smiles input": "Cn1cc(-c2ccncc2)c(-c2ccc(OCc3cc(C(=O)N=S(C)(C)=O)c4cc(F)ccc4n3)cc2)n1", "unit spec": "nM", "IC50": 3.63}
{"smiles input": "Cn1cc(-c2ccncc2)c(-c2ccc(OCc3cc(NS(C)(=O)=O)c4ccccc4n3)cc2)n1", "unit spec": "nM", "IC50": 1.2}
{"smiles input": "Cn1cc(-c2ccncc2)c(-c2ccc(OCc3nc4ccc(F)cc4cc3C(=O)N=S(C)(C)=O)cc2)n1", "unit spec": "nM", "IC50": 17.4}

// next item, IC50 requested
## Input Fill blank: measured IC50 of the compound "CS(C)(=O)=Nc1cc(COc2ccc(-c3n[nH]cc3-c3ccncc3)cc2)nc2ccccc12" is ____.
## Output 46.8
